As shown below, each of these substances has a reported NOP/β-arrestin 2 α ± sem (intrinsic activity) value.
System tested: NOP receptor (NOP-RLuc/β-arrestin 2-RGFP) (Homo sapiens)
Construct: expressed in transfected cells; host or cells: HEK293 (whole cells)
Sequence (P41146 whole entry): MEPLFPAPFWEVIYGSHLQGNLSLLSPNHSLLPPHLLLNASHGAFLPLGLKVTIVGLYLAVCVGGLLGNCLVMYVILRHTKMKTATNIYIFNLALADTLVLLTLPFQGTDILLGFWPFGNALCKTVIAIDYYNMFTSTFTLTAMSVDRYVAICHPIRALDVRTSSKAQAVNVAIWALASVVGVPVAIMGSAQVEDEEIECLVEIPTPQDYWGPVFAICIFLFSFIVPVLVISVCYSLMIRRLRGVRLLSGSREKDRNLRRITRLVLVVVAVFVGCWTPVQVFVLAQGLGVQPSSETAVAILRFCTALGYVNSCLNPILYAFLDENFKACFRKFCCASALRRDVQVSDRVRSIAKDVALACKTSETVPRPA
Protocol details: NOP/β-arrestin 2 interaction, BRET assay in whole cells
Format: cell-based
Condition summary: Emax of ligand / Emax of N/OFQ(1–13)-NH2; mean ± sem of five experiments in duplicate
No end group written: not given here.
Measure: NOP/β-arrestin 2 α ± sem (intrinsic activity)

>  <Substance>
FGGFTGARKAARK-NH2 [Compound 9, [Ala^10]N/OFQ(1–13)-NH2]

>  <System tested>
NOP receptor (NOP-RLuc/β-arrestin 2-RGFP) (Homo sapiens)

>  <Recorded value>
1.00

$$$$
>  <Substance>
FGGFTGARKSARA-NH2 [Compound 11, [Ala^13]N/OFQ(1–13)-NH2]

>  <System tested>
NOP receptor (NOP-RLuc/β-arrestin 2-RGFP) (Homo sapiens)

>  <Recorded value>
1.03

$$$$
>  <Substance>
LGGFTGARKSARK-NH2 [Compound 23, [Leu^1]N/OFQ(1–13)-NH2]

>  <System tested>
NOP receptor (NOP-RLuc/β-arrestin 2-RGFP) (Homo sapiens)

>  <Recorded value>
1.04

$$$$
>  <Substance>
FGGFTGARKSAAK-NH2 [Compound 10, [Ala^12]N/OFQ(1–13)-NH2]

>  <System tested>
NOP receptor (NOP-RLuc/β-arrestin 2-RGFP) (Homo sapiens)

>  <Recorded value>
0.99

$$$$
>  <Substance>
FGGFTGARASARK-NH2 [Compound 8, [Ala^9]N/OFQ(1–13)-NH2]

>  <System tested>
NOP receptor (NOP-RLuc/β-arrestin 2-RGFP) (Homo sapiens)

>  <Recorded value>
1.03

$$$$

====

System tested: NOP receptor (NOP-RLuc/Gβ1-RGFP) (Homo sapiens)
Construct: expressed in transfected cells; host or cells: HEK293 (enriched plasma membranes)
Sequence (P41146 whole entry): as above
Protocol details: NOP/G protein interaction, BRET assay in membranes
Format: biochemical
Condition summary: ratio between EC50 of the ligand and that of the standard agonist N/OFQ(1–13)-NH2
No end group written: not given here.

>  <Substance>
[Ala^8]N/OFQ(1–13)-NH2 (FGGFTGAAKSARK-NH2) [Compound 7]

>  <NOP/G protein CR (concentration ratio)>
∼1000

$$$$
>  <Substance>
[Ala^4]N/OFQ(1–13)-NH2 (FGGATGARKSARK-NH2) [Compound 4]

>  <NOP/G protein CR (concentration ratio)>
∼1000

$$$$
>  <Substance>
[Ala^1]N/OFQ(1–13)-NH2 (AGGFTGARKSARK-NH2) [Compound 1]

>  <NOP/G protein CR (concentration ratio)>
∼700

$$$$
